Every entry's value here was drawn from the supplement of paper PMC10126150.

As shown below, each of these sequences has a reported switch fluorescence ratio value.
# Test system: ATP;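 also: ATP exposure 15 min at 22 °C before imaging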
# measurement-notes: switch fluorescence ratio, 500 uM ATP over buffer (Cy3 cluster intensity, sum of 5 cycles each) (fold (ratio)); higher = stronger signal-on switching upon ATP binding; sequences stand for … in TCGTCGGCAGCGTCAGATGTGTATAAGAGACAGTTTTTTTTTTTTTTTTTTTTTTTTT…TC
# assay-context: aptamer strand: ATP DNA aptamer (quencher-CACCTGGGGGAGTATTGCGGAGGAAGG + anchor), 100 nM annealed; ATP concentration: 500 uM
Give your answer as a number; write no unit.

Past entries and their recorded results:
| seq-string | observed-value |
| --- | --- |
| GGTGGAAGGA | 1.02 |
| TATGACATTA | 1.02 |

Name the reported switch fluorescence ratio value associated with the sequence GGGGTATTAT
1

Next entry: GTTTTAGTGG
0.987

Queued: CAGTCCGGCA
1.05

Can you handle CCAGCTTTTT next?
0.957

Next entry: ATGTTCTATA
0.978

Now give it for TTTACGTTTG too.
0.992

Another sequence to check: TTATGAGAGC
0.964

====

# Tested on: ATP;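 also: ATP exposure 15 min at 22 °C before imaging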
# measurement-notes: switch fluorescence ratio, 500 uM ATP over buffer (Cy3 cluster intensity, sum of 5 cycles each) (fold (ratio)); higher = stronger signal-on switching upon ATP binding; sequences stand for … in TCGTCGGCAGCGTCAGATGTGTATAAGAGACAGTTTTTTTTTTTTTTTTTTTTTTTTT…TC
# assay-context: aptamer strand: ATP DNA aptamer (quencher-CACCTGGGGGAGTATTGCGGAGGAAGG + anchor), 100 nM annealed; ATP concentration: 500 uM
measured-parameter: switch fluorescence ratio
Just the number, please, no unit attached.

| seq-string | tested-on | switch fluorescence ratio |
| --- | --- | --- |
| TTATTTTTGC | ATP | 1.01 |
| ACTCGGTTGG | ATP | 1.03 |
| TATTTGGTGG | ATP | 1.02 |
| CAAGGGGCAG | ATP | 1.01 |
| TTTACGGGTT | ATP | 0.988 |

If you can, please state the reported switch fluorescence ratio value of TAGTGGTGGA .
0.998

====

# Test system: ATP;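 also: ATP exposure 15 min at 22 °C before imaging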
# measurement-notes: switch fluorescence ratio, 500 uM ATP over buffer (Cy3 cluster intensity, sum of 5 cycles each) (fold (ratio)); higher = stronger signal-on switching upon ATP binding; sequences stand for … in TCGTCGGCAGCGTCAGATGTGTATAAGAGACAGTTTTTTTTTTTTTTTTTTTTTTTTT…TC
# assay-context: aptamer strand: ATP DNA aptamer (quencher-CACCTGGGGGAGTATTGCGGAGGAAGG + anchor), 100 nM annealed; ATP concentration: 500 uM
measured-parameter: switch fluorescence ratio
Respond using a number only.

The cases that follow already have their switch fluorescence ratio on record.
| seq-string | switch fluorescence ratio |
| --- | --- |
| AAGGAGGATG | 0.995 |
| TAAGTCATGG | 0.992 |
| ACCTCACTTT | 1.3 |
| TTACCGGTAG | 0.993 |
| CGGGGTGAAT | 1.02 |
| TTTGACGTTG | 1.02 |

// query switch fluorescence ratio value for entry GTCAGTTTTT
0.994

Likewise for TTGTTTGGCC ?
1.05

Another sequence to check: CCCGTCAGCG
1.02
